System: 3T3-L1 adipocytes
Procedure summary: Adipogenesis in 3T3-L1 adipocytes cultured with inhibitors of intracellular signaling pathways (AdipoRed)
Assay type: cell-based, mouse
Condition details: added two days after differentiation, cultured two days; genistein 1 or 10 μM, Wortmannin 10 or 100 nM, PD98059 1 or 10 μM, Bay 11-7082 1 or 10 nM; FIG. 6A-D
Quantity name: Lipogenesis/adipogenesis with the inhibitor alone

Molecule | Assay result
COc1cccc(-c2cc(=O)c3ccccc3o2)c1N [PD98059, reference compound] | inhibited
Cc1ccc(S(=O)(=O)/C=C/C#N)cc1 [Bay 11-7082, reference compound] | inhibited
COC[C@H]1OC(=O)c2coc3c2[C@@]1(C)C1=C(C3=O)[C@@H]2CCC(=O)[C@@]2(C)C[C@H]1OC(C)=O [Wortmannin, reference compound] | inhibited

Origin of measurements: patent US20260283977A1
